Test: Selectivity index, ratio of IC50 for HEK293 cells to IC50 for mouse MOC2 cells
Assay type: toxicity
Conditions: HEK293 cells versus MOC2 cells, read-out: Ratio IC50
REPORTED_METRIC: selectivity ratio
Just the number, please, no unit attached.

Some solved cases for reference:
>>> observed("COc1cc(/C=C2\\S/C(=N\\c3nnc(SCc4ccc(Cl)cc4Cl)s3)NC2=O)ccc1O")
1.04
>>> observed("COc1ccc(/C=C2\\S/C(=N\\c3nnc(SCc4ccc(Cl)cc4)s3)NC2=O)cc1")
3.08
>>> observed("O=C1N/C(=N/c2nnc(SCc3ccccc3)s2)S/C1=C\\c1cccc(F)c1")
4.72

Task: Field request: selectivity ratio | item: O=C1N/C(=N/c2nnc(SCc3ccc(Cl)cc3Cl)s2)S/C1=C\c1ccc(F)cc1
Result: 1.16

Task: Endpoint output: selectivity ratio of O=C1N/C(=N/c2nnc(SCc3ccccc3)s2)S/C1=C\c1ccccc1 . Value?
Result: 5.07

Task: Field request: selectivity ratio | item: O=C1N/C(=N/c2nnc(SCc3ccc(Cl)cc3Cl)s2)S/C1=C\c1ccccc1
Result: 1.19

Task: May I ask what selectivity ratio has been recorded for COc1cc(/C=C2\S/C(=N\c3nnc(SCc4ccc(Cl)cc4)s3)NC2=O)ccc1O ?
Result: 1.6

Task: I'd like to know its selectivity ratio. The molecule in question is O=C1N/C(=N/c2nnc(SCc3ccccc3)s2)S/C1=C\c1ccc(Cl)cc1
Result: 4.36

Task: I'd like to know its selectivity ratio. The molecule in question is O=C1N/C(=N/c2nnc(SCc3ccc(Cl)cc3)s2)S/C1=C\c1ccc(O)cc1
Result: 1.15

Task: Would you kindly share the measured selectivity ratio for O=C1N/C(=N/c2nnc(SCc3ccc(Cl)cc3)s2)S/C1=C\c1ccc(F)cc1 ?
Result: 1.91
